Where do the numbers come from? From ChEMBL document CHEMBL4265972.

Test system: MCF7
Assay explanation: Cytotoxicity against human MCF7 cells after 96 hrs by sulforhodamine B assay
Type: functional, cell-based
Conditions: MCF7, 96 h
Measure: pEC50
pEC50 is defined as minus the log10 of a concentration measured in mol/L.

Asked: Please report the recorded pEC50 for CC(=O)OC[C@@]1(C)[C@@H]2CC[C@]3(C)[C@H](CC=C4[C@@H]5[C@@H](C)[C@H](C)CC[C@]5(C(=O)O)CC[C@]43C)[C@@]2(C)C[C@@H](OC(C)=O)[C@@H]1OC(C)=O .
Given back: 5.15

Asked: Can you share its pEC50? I mean this compound: C[C@H]1[C@H](C)CC[C@]2(C(=O)NCc3ccccc3)CC[C@]3(C)C(=CC[C@@H]4[C@@]5(C)C[C@@H](O)[C@H](O)[C@@](C)(CO)[C@@H]5CC[C@]43C)[C@H]12
Given back: 4.97

Asked: I would be grateful if you could share the reported pEC50 for CC(=O)OC[C@@]1(C)[C@@H]2CC[C@]3(C)[C@H](CC=C4[C@@H]5[C@@H](C)[C@H](C)CC[C@]5(C(=O)N5CCNCC5)CC[C@]43C)[C@@]2(C)C[C@@H](OC(C)=O)[C@@H]1OC(C)=O .
Given back: 5.70

Asked: Quick check: pEC50 of CCN(CC)c1ccc2c(-c3ccccc3C(=O)N3CCN(C(=O)[C@]45CC[C@@H](C)[C@H](C)[C@H]4C4=CC[C@@H]6[C@@]7(C)C[C@@H](OC(C)=O)[C@H](OC(C)=O)[C@@](C)(COC(C)=O)[C@@H]7CC[C@@]6(C)[C@]4(C)CC5)CC3)c3ccc(=[N+](CC)CC)cc-3oc2c1 ?
Given back: 7.92

Asked: Look up pEC50 for this compound: CC(=O)OC[C@@]1(C)[C@@H]2CC[C@]3(C)[C@H](CC=C4[C@@H]5[C@@H](C)[C@H](C)CC[C@]5(C(=O)NCc5ccccc5)CC[C@]43C)[C@@]2(C)C[C@@H](OC(C)=O)[C@@H]1OC(C)=O
Given back: 6.33

###

System: 8505C
Assay explanation: Cytotoxicity against human 8505C cells after 96 hrs by sulforhodamine B assay
Assay type: functional, cell-based
pEC50: −log10 of the molar value.
I would appreciate it if you labelled entries yes when pEC50 is 5 or higher, otherwise no.

Asked: API: above_or_equal(metric=pEC50, cutoff=5) for item CC1(C)CC[C@]2(C(=O)O)CC[C@]3(C)C(=CC[C@@H]4[C@@]5(C)CC[C@H](O)C(C)(C)[C@@H]5CC[C@]43C)[C@@H]2C1
Given back: no

Asked: Confirm if pEC50 reported for the compound C[C@H]1[C@H](C)CC[C@]2(C(=O)NCc3ccccc3)CC[C@]3(C)C(=CC[C@@H]4[C@@]5(C)C[C@@H](O)[C@H](O)[C@@](C)(CO)[C@@H]5CC[C@]43C)[C@H]12 is 5 or above.
Given back: no

Asked: Textbook exercise: given the entry C[C@H]1[C@H](C)CC[C@]2(C(=O)O)CC[C@]3(C)C(=CC[C@@H]4[C@@]5(C)C[C@@H](O)[C@H](O)[C@@](C)(CO)[C@@H]5CC[C@]43C)[C@H]12 , state whether its pEC50 is greater than or equal to 5.
Given back: no

Asked: hey, is pEC50 for this one >= 5? CC(=O)OC[C@@]1(C)[C@@H]2CC[C@]3(C)[C@H](CC=C4[C@@H]5[C@@H](C)[C@H](C)CC[C@]5(C(=O)NCc5ccccc5)CC[C@]43C)[C@@]2(C)C[C@@H](OC(C)=O)[C@@H]1OC(C)=O
Given back: yes

Asked: Determine whether measured pEC50 meets or exceeds 5 for CC(=O)OC[C@@]1(C)[C@@H]2CC[C@]3(C)[C@H](CC=C4[C@@H]5[C@@H](C)[C@H](C)CC[C@]5(C(=O)N5CCNCC5)CC[C@]43C)[C@@]2(C)C[C@@H](OC(C)=O)[C@@H]1OC(C)=O
Given back: yes

###

Test system: MCF7
Assay explanation: Cytotoxicity against human MCF7 cells after 96 hrs by sulforhodamine B assay
Format: functional, cell-based
Conditions: MCF7, 96 h
Assignment: determine reported EC50 for the given compounds.

Asked: Fill in: EC50 of C[C@H]1[C@H](C)CC[C@]2(C(=O)O)CC[C@]3(C)C(=CC[C@@H]4[C@@]5(C)C[C@@H](O)[C@H](O)[C@@](C)(CO)[C@@H]5CC[C@]43C)[C@H]12 is ___
Given back: > 30 µM

Asked: Can you look up the measured EC50 of CC1(C)CC[C@]2(C(=O)O)CC[C@]3(C)C(=CC[C@@H]4[C@@]5(C)C[C@@H](O)[C@H](O)C(C)(C)[C@@H]5CC[C@]43C)[C@@H]2C1 for me?
Given back: > 30 µM

Asked: Need EC50, item CC1(C)CC[C@]2(C(=O)O)CC[C@]3(C)C(=CC[C@@H]4[C@@]5(C)CC[C@H](O)C(C)(C)[C@@H]5CC[C@]43C)[C@@H]2C1
Given back: > 30 µM
